TEST: NFAT Signaling Pathway (AID 444)
DETAILS: Jurkat NFAT-bla M1, carbachol, beta-lactamase ratio, 5 h; at 17.2 µM (top of the series)
Records with an inconclusive call do not appear.
Parameter: activity change, negative = inhibition. Scope: all listed entries.

COMPOUND | activity change, negative = inhibition (%)
CN1[C@@H]2CCC[C@H]1CC(=O)C2 | -4.22
COc1ccc(C(=O)OC2C[C@H]3CC[C@@H](C2)N3C)cc1OC (stereo partly drawn) | -18.9
COc1ccc2c(c1OC)CN1CCc3cc4c(cc3[C@H]1C2)OCO4 | -25.2
C[C@H]1CC[C@@]2(NC1)O[C@@H]1C[C@H]3[C@@H]4CC[C@@H]5C[C@@H](O)CC[C@@]5(C)[C@@H]4CC[C@]3(C)[C@@H]1[C@@H]2C | 1.76
C[C@@H]1O[C@H](O[C@H]2C[C@@H](O)[C@@]3(CO)[C@H]4[C@@H](O)C[C@]5(C)[C@@H](C6=CC(=O)OC6)CC[C@]5(O)[C@H]4CC[C@]3(O)C2)[C@@H](O)[C@H](O)[C@@H]1O | -76.3
C=C(C)[C@H]1[C@H]2OC(=O)[C@@H]1[C@]1(O)C[C@H]3O[C@]34C(=O)O[C@H]2[C@@]14C | -0.55
c1ccc2c(c1)[nH]c1cnccc12 | 25.7
CN(C)C(=O)Oc1cc(OC(=O)N(C)C)cc([C@@H](O)CNC(C)(C)C)c1 | -23.9

====

TEST: qHTS for inhibitors of Wild type Zika virus screened against the NCATS CANVASS Library (AID 1347396)
DETAILS: Vero cells, Zika virus CPE, CellTiter-Glo, 72 h; series mostly up to 45.9 µM
Records with an inconclusive call do not appear. Calls of active or inactive are those of the source. The call rests on the fitted dose curve; in most records, active means well fitted curve in the direction sought with a large enough effect; inconclusive means small, poorly fitted or top-dose-only effect, or another doubt; inactive means no such curve, though single readings can be large or run the other way.
REPORTED_ENDPOINT: outcome

SMILES_REPR | REPORTED_ENDPOINT | VAL
C=CC(C)(C)[C@@]12C[C@H]3C(=O)N/C(=C/c4cnc[nH]4)C(=O)N3[C@@H]1Nc1ccccc12 | outcome | inactive
C/C=C(\C)C(=O)O[C@@H]1[C@@H](O)[C@@H]2O[C@H]3[C@H](O[C@@H](CCCCC)CCCCCCC(=O)CCC(=O)OC[C@@H](O2)[C@H]1OC(=O)/C=C/c1ccccc1)O[C@H](C)[C@H](OC(C)=O)[C@@H]3O | outcome | inactive
C/C=C1/CN2CC[C@]34C(=C(C(=O)OC)[C@H]1C[C@H]23)Nc1ccccc14 | outcome | inactive

====

TEST: Primary qHTS to identify inhibitors of SARS-CoV-2 cell entry (AID 1645846)
DETAILS: SARS-CoV-2 pseudovirus cell entry assay, luminescence; at 57.1 µM (top of the series) unless noted
Results filed as inconclusive are left out.
Parameter: activity change, negative = inhibition. Scope: all listed entries.
REPORTED_ENDPOINT: activity change, negative = inhibition

COMPOUND | VAL
COC1=C(OC)C(=O)C(C/C=C(\C)CC/C=C(\C)CC/C=C(\C)CC/C=C(/C)CC/C=C(\C)CC/C=C(\C)CC/C=C(\C)CC/C=C(\C)CC/C=C(\C)CCC=C(C)C)=C(C)C1=O | -14.5%
CCN1CCN(C(=O)N[C@@H](C(=O)N[C@]2(OC)C(=O)N3C(C(=O)O)=C(CSc4nnnn4C)CS[C@@H]32)[C@H](C)O)C(=O)C1=O | -16.3%
O=P(O)(O)OP(=O)(O)O | -3.78%
O=C(/C=C/c1cccc(S(=O)(=O)Nc2ccccc2)c1)NO | -13.6%
CCCCCCCCCCCCCCCCCC(=O)OCC(C)O (configuration not stated) | -21% [at 114 µM]
CN1CCN(C(=O)[C@H]2[C@@H](C(=O)O)[C@H]3CC[C@@H]2O3)CC1 | -6.02% [at 11.3 µM]
C/C=C(\C)C(=O)N[C@@H](c1ccccc1)[C@@H](O)C(=O)O[C@H]1C[C@@]2(O)[C@@H](OC(=O)c3ccccc3)[C@@H]3[C@]4(OC(C)=O)CO[C@@H]4C[C@H](O)[C@@]3(C)C(=O)[C@H](OC(C)=O)C(=C1C)C2(C)C | -81.8%
